- Experiment notes: Phase 1 crossover study: AZD5718 plasma pharmacokinetics
- Assay type: in vivo, human
- Condition set: human, plasma, oral, AZD5718 t1/2 lambda z, geometric mean (%CV), 200 mg tablet plus rosuvastatin 10 mg, fasted, n = 12
Parameter measured: half-life (h)
Provide only the numeric value, understood in h.

Need half-life, item Cc1cc(-c2ccc(C(=O)[C@@H]3CCCC[C@H]3C(=O)Nc3cnn4c3C(=O)NCC4)cc2)n[nH]1
13.9

* * *

- Experiment notes: Phase 1 crossover study: AZD5718 plasma pharmacokinetics
- Assay type: in vivo, human
- Condition set: human, plasma, oral, 200 mg, AZD5718 AUC0-inf, geometric mean (%CV), 200 mg tablet, fed, n = 12
Parameter measured: AUC(0-inf) (µM·h)
Provide only the numeric value, understood in µM·h.

Need AUC(0-inf), item Cc1cc(-c2ccc(C(=O)[C@@H]3CCCC[C@H]3C(=O)Nc3cnn4c3C(=O)NCC4)cc2)n[nH]1 [AZD5718]
3.33

* * *

- Experiment notes: Phase 1 crossover study: rosuvastatin plasma pharmacokinetics
- Type: in vivo, human
- Condition set: human, plasma, oral, 10 mg, rosuvastatin 10 mg plus AZD5718 200-mg tablet, fasted; read-out: Rosuvastatin Cmax, geometric mean (%CV)
Parameter measured: Cmax (ng/mL)
Provide only the numeric value, understood in ng/mL.

Need Cmax, item CC(C)c1nc(N(C)S(C)(=O)=O)nc(-c2ccc(F)cc2)c1/C=C/[C@@H](O)C[C@@H](O)CC(=O)O
5.74

* * *

- Experiment notes: Phase 1 crossover study: AZD5718 plasma pharmacokinetics
- Type: in vivo, human
- Condition set: human, plasma, oral, 200 mg, AZD5718 AUC0-last, arithmetic mean (SD), 200 mg tablet, fed, n = 12
- Description: The primary objective was to evaluate the pharmacokinetics of oral rosuvastatin when administered alone and in combination with oral AZD5718. […] Rosuvastatin pharmacokinetics were analyzed using a mixed-effects model, with log-transformed AUC, AUC0-last, and Cmax as the response variables; treatment sequence, period, and treatment as fixed effects; and participant nested within treatment sequence as a random effect. […]
Parameter measured: AUC(0-t) (µM·h)
Provide only the numeric value, understood in µM·h.

Need AUC(0-t), item Cc1cc(-c2ccc(C(=O)[C@@H]3CCCC[C@H]3C(=O)Nc3cnn4c3C(=O)NCC4)cc2)n[nH]1
3.27

* * *

- Experiment notes: Phase 1 crossover study: AZD5718 plasma pharmacokinetics
- Type: in vivo, human
- Condition set: human, plasma, oral, AZD5718 AUC0-inf, arithmetic mean (SD), 200 mg tablet plus rosuvastatin 10 mg, fasted, n = 12
Parameter measured: AUC(0-inf) (µM·h)
Provide only the numeric value, understood in µM·h.

Need AUC(0-inf), item Cc1cc(-c2ccc(C(=O)[C@@H]3CCCC[C@H]3C(=O)Nc3cnn4c3C(=O)NCC4)cc2)n[nH]1
3.67

* * *

- Experiment notes: Phase 1 crossover study: AZD5718 plasma pharmacokinetics
- Assay type: in vivo, human
- Condition set: human, plasma, oral, 200 mg, AZD5718 t1/2 lambda z, arithmetic mean (SD), 200 mg suspension, fasted, n = 10
Parameter measured: half-life (h)
Provide only the numeric value, understood in h.

Need half-life, item Cc1cc(-c2ccc(C(=O)[C@@H]3CCCC[C@H]3C(=O)Nc3cnn4c3C(=O)NCC4)cc2)n[nH]1
13.6

* * *

- Experiment notes: Phase 1 crossover study: rosuvastatin plasma pharmacokinetics
- Type: in vivo, human
- Condition set: human, plasma, oral, 10 mg, rosuvastatin 10 mg alone, fasted, n = 12; read-out: Rosuvastatin AUC0-last, arithmetic mean (SD)
Parameter measured: AUC(0-t) (ng·h/mL)
Provide only the numeric value, understood in ng·h/mL.

Need AUC(0-t), item CC(C)c1nc(N(C)S(C)(=O)=O)nc(-c2ccc(F)cc2)c1/C=C/[C@@H](O)C[C@@H](O)CC(=O)O
54.2

* * *

- Experiment notes: Phase 1 crossover study: AZD5718 plasma pharmacokinetics
- Assay type: in vivo, human
- Condition set: human, plasma, oral, 200 mg, AZD5718 tmax, median (range), 200 mg tablet, fed, n = 12
Parameter measured: Tmax (h)
Provide only the numeric value, understood in h.

Need Tmax, item Cc1cc(-c2ccc(C(=O)[C@@H]3CCCC[C@H]3C(=O)Nc3cnn4c3C(=O)NCC4)cc2)n[nH]1 [AZD5718]
4

* * *

- Experiment notes: Phase 1 crossover study: rosuvastatin plasma pharmacokinetics
- Type: in vivo, human
- Condition set: human, plasma, oral, 10 mg, rosuvastatin 10 mg alone, fasted, n = 9; read-out: Rosuvastatin AUC0-inf, arithmetic mean (SD)
Parameter measured: AUC(0-inf)
Write the quantity with the unit trailing the number.

Need AUC(0-inf), item CC(C)c1nc(N(C)S(C)(=O)=O)nc(-c2ccc(F)cc2)c1/C=C/[C@@H](O)C[C@@H](O)CC(=O)O
45.3 ng·h/mL

* * *

- Assayed target: P‐glycoprotein (Homo sapiens, UniProt P08183)
- Sequence (P08183 whole entry): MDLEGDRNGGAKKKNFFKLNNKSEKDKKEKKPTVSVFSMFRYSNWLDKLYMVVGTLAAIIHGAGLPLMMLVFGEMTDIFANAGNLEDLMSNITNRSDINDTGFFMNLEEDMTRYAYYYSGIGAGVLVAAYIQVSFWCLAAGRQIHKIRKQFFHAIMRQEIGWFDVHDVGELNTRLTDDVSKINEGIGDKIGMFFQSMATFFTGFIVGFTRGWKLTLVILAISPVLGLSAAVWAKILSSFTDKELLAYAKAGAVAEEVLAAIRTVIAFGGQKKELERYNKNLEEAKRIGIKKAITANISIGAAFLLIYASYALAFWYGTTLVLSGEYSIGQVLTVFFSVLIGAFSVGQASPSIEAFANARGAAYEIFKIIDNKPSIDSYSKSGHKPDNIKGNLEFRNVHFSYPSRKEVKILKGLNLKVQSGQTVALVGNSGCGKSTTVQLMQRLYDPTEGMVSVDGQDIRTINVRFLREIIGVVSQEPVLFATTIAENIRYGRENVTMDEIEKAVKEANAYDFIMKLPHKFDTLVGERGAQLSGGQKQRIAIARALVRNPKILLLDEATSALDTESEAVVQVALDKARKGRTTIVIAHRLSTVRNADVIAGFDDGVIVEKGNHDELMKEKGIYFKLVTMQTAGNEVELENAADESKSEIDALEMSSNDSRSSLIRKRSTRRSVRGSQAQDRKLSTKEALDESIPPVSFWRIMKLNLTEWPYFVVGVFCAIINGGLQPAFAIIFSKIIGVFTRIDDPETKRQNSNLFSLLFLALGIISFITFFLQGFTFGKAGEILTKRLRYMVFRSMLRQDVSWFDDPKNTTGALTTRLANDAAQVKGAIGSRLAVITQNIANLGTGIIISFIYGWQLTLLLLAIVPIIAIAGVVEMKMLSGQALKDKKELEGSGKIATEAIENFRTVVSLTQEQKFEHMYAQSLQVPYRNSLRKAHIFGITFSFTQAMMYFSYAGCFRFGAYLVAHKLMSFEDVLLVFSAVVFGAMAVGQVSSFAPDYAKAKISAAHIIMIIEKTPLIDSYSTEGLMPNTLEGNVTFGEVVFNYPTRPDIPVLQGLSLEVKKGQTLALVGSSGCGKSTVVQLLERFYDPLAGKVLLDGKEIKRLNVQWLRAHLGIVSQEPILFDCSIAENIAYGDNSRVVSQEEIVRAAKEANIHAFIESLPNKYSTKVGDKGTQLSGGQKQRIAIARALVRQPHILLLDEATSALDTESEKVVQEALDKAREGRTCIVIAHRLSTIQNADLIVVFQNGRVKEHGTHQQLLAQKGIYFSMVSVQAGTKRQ
- Experiment notes: P-glycoprotein inhibition in vitro
- Format: in vitro ADME
Parameter measured: IC50

Need IC50, item Cc1cc(-c2ccc(C(=O)[C@@H]3CCCC[C@H]3C(=O)Nc3cnn4c3C(=O)NCC4)cc2)n[nH]1
> 100 µM

* * *

- Experiment notes: Phase 1 crossover study: AZD5718 plasma pharmacokinetics
- Type: in vivo, human
- Condition set: human, plasma, oral, 200 mg, AZD5718 AUC0-inf, geometric mean (%CV), 200 mg suspension, fasted, n = 10
Parameter measured: AUC(0-inf) (µM·h)
Provide only the numeric value, understood in µM·h.

Need AUC(0-inf), item Cc1cc(-c2ccc(C(=O)[C@@H]3CCCC[C@H]3C(=O)Nc3cnn4c3C(=O)NCC4)cc2)n[nH]1
4.89

* * *

- Experiment notes: Phase 1 crossover study: AZD5718 plasma pharmacokinetics
- Type: in vivo, human
- Condition set: male, human, plasma, oral, AZD5718 Cmax, geometric mean (%CV), 200 mg tablet plus rosuvastatin 10 mg, fasted, n = 12
Parameter measured: Cmax (nM)
Provide only the numeric value, understood in nM.

Need Cmax, item Cc1cc(-c2ccc(C(=O)[C@@H]3CCCC[C@H]3C(=O)Nc3cnn4c3C(=O)NCC4)cc2)n[nH]1 [AZD5718]
545

* * *

- Experiment notes: Phase 1 crossover study: rosuvastatin plasma pharmacokinetics
- Assay type: in vivo, human
- Condition set: human, plasma, oral, 10 mg, rosuvastatin 10 mg alone, fasted, n = 12; read-out: Rosuvastatin Cmax, arithmetic mean (SD)
Parameter measured: Cmax (ng/mL)
Provide only the numeric value, understood in ng/mL.

Need Cmax, item CC(C)c1nc(N(C)S(C)(=O)=O)nc(-c2ccc(F)cc2)c1/C=C/[C@@H](O)C[C@@H](O)CC(=O)O [Rosuvastatin, rosuvastatin]
5.56

* * *

- Experiment notes: Phase 1 crossover study: AZD5718 plasma pharmacokinetics
- Assay type: in vivo, human
- Condition set: human, plasma, oral, 200 mg, AZD5718 AUC0-inf, arithmetic mean (SD), 200 mg suspension, fasted, n = 10
Parameter measured: AUC(0-inf) (µM·h)
Provide only the numeric value, understood in µM·h.

Need AUC(0-inf), item Cc1cc(-c2ccc(C(=O)[C@@H]3CCCC[C@H]3C(=O)Nc3cnn4c3C(=O)NCC4)cc2)n[nH]1
5

* * *

- Experiment notes: Phase 1 crossover study: AZD5718 plasma pharmacokinetics
- Type: in vivo, human
- Condition set: human, plasma, oral, 200 mg, AZD5718 t1/2 lambda z, geometric mean (%CV), 200 mg tablet, fasted, n = 10
Parameter measured: half-life (min)
Provide only the numeric value, understood in min.

Need half-life, item Cc1cc(-c2ccc(C(=O)[C@@H]3CCCC[C@H]3C(=O)Nc3cnn4c3C(=O)NCC4)cc2)n[nH]1
792

* * *

- Experiment notes: Phase 1 crossover study: AZD5718 plasma pharmacokinetics
- Type: in vivo, human
- Condition set: human, plasma, oral, 200 mg, AZD5718 t1/2 lambda z, arithmetic mean (SD), 200 mg tablet, fasted, n = 10
Parameter measured: half-life (h)
Provide only the numeric value, understood in h.

Need half-life, item Cc1cc(-c2ccc(C(=O)[C@@H]3CCCC[C@H]3C(=O)Nc3cnn4c3C(=O)NCC4)cc2)n[nH]1
14

* * *

- Experiment notes: Phase 1 crossover study: AZD5718 plasma pharmacokinetics
- Assay type: in vivo, human
- Condition set: male, human, plasma, oral, 200 mg, AZD5718 Cmax, geometric mean (%CV), 200 mg tablet, fasted, n = 12
Parameter measured: Cmax (nM)
Provide only the numeric value, understood in nM.

Need Cmax, item Cc1cc(-c2ccc(C(=O)[C@@H]3CCCC[C@H]3C(=O)Nc3cnn4c3C(=O)NCC4)cc2)n[nH]1
530

* * *

- Experiment notes: Phase 1 crossover study: rosuvastatin plasma pharmacokinetics
- Format: in vivo, human
- Condition set: human, plasma, oral, 10 mg, rosuvastatin 10 mg alone, fasted, n = 12; read-out: Rosuvastatin AUC0-last, geometric mean (%CV)
Parameter measured: AUC(0-t)

Need AUC(0-t), item CC(C)c1nc(N(C)S(C)(=O)=O)nc(-c2ccc(F)cc2)c1/C=C/[C@@H](O)C[C@@H](O)CC(=O)O [Rosuvastatin, rosuvastatin]
45.3 ng·h/mL
